# System: Rhizoctonia solani AG-1
# TEST: Fungicidal activity against rice sheath blight (RSB) disease, control value
# ASSAY_SETUP: Rhizoctonia solani, AG1, in Oryza sativa, read-out: RSB control value (C.V.)
pest or weed control at 10 ppm reference
All answers are understood in %, so give the number only.

GET /values?readout=pest or weed control at 10 ppm&system=Rhizoctonia solani AG-1&item= `CO/N=C(/C(=O)OC)c1ccccc1COc1ccc(C=C(Cl)Cl)cc1Br`
98

GET /values?readout=pest or weed control at 10 ppm&system=Rhizoctonia solani AG-1&item= `CO/N=C(/C(=O)OC)c1ccccc1COc1ccc(C)cc1C=C(Cl)Cl`
100

GET /values?readout=pest or weed control at 10 ppm&system=Rhizoctonia solani AG-1&item= `CNC(=O)/C(=N/OC)c1ccccc1COc1ccc(C=C(Br)Br)cc1C`
98

GET /values?readout=pest or weed control at 10 ppm&system=Rhizoctonia solani AG-1&item= `CO/N=C(/C(=O)OC)c1ccccc1COc1cc(Br)ccc1C=C(Br)Br`
85

GET /values?readout=pest or weed control at 10 ppm&system=Rhizoctonia solani AG-1&item= `CNC(=O)/C(=N/OC)c1ccccc1COc1ccc(C=C(Cl)Br)cc1`
98

GET /values?readout=pest or weed control at 10 ppm&system=Rhizoctonia solani AG-1&item= `CNC(=O)/C(=N/OC)c1ccccc1COc1ccc(F)cc1C=C(Br)Br`
98

GET /values?readout=pest or weed control at 10 ppm&system=Rhizoctonia solani AG-1&item= `CO/N=C(/C(=O)OC)c1ccccc1COc1ccc(C=C(Cl)Cl)c(Cl)c1`
100

GET /values?readout=pest or weed control at 10 ppm&system=Rhizoctonia solani AG-1&item= `CO/N=C(/C(=O)OC)c1ccccc1COc1cc(C=C(Cl)Cl)ccc1OC`
100

GET /values?readout=pest or weed control at 10 ppm&system=Rhizoctonia solani AG-1&item= `CCOc1cc(C=C(Cl)Cl)ccc1OCc1ccccc1/C(=N\OC)C(=O)OC`
100

----------
# Tested on: Phytophthora infestans
# TEST: whole plant or invertebrate
# Type: in vivo
# ASSAY_SETUP: Phytophthora infestans, in Solanum lycopersicum, read-out: TLB control value (C.V.)
METRIC: pest or weed control at 2 ppm (%)
All answers are understood in %, so give the number only.

{"columns": ["LINE_NOTATION", "METRIC", "RESULT_VALUE"],
 "data": [
  ["CO/N=C(/C(=O)OC)c1ccccc1COc1ccc(C=C(Br)Br)cc1Cl", "pest or weed control at 2 ppm", 99],
  ["CO/N=C(/C(=O)OC)c1ccccc1COc1ccc(C=C(Br)Br)cc1C", "pest or weed control at 2 ppm", 50],
  ["CO/N=C(/C(=O)OC)c1ccccc1COc1c(OC)ccc(C=C(Cl)Cl)c1Br", "pest or weed control at 2 ppm", 90],
  ["CO/N=C(/C(=O)OC)c1ccccc1COc1ccc(F)cc1C=C(Br)Br", "pest or weed control at 2 ppm", 70]
]}

Fill in: pest or weed control at 2 ppm of `CO/N=C(/C(=O)OC)c1ccccc1COc1ccc(C)cc1C=C(Br)Br` is ___
100

Fill in: pest or weed control at 2 ppm of `CNC(=O)/C(=N/OC)c1ccccc1COc1cccc(C=C(Cl)Cl)c1Cl` is ___
95

Fill in: pest or weed control at 2 ppm of `CO/N=C(/C(=O)OC)c1ccccc1COc1ccc(F)cc1C=C(Cl)Cl` is ___
99

Fill in: pest or weed control at 2 ppm of `CNC(=O)/C(=N/OC)c1ccccc1COc1cc(C=C(Cl)Cl)ccc1OC` is ___
70

Fill in: pest or weed control at 2 ppm of `CNC(=O)/C(=N/OC)c1ccccc1COc1cc(C=C(Br)Br)ccc1OC` is ___
70

----------
# Tested on: Puccinia recondita
# TEST: Fungicidal activity against wheat leaf rust (WLR) disease, control value
# Assay type: in vivo
# ASSAY_SETUP: 2 ppm, wheat leaf rust; read-out: WLR control value (C.V.)
METRIC: pest or weed control at 2 ppm (%)
All answers are understood in %, so give the number only.

Worked set:
{"columns": ["MOLECULE", "pest or weed control at 2 ppm / %"],
 "data": [
  ["CO/N=C(/C(=O)OC)c1ccccc1COc1cc(C=C(Cl)Cl)ccc1OC [Example 47]", 100],
  ["CNC(=O)/C(=N/OC)c1ccccc1COc1cccc(C=C(Br)Br)c1 [Example 6]", 0],
  ["CNC(=O)/C(=N/OC)c1ccccc1COc1ccc(C=C(Cl)Cl)cc1 [Example 4]", 100],
  ["CO/N=C(/C(=O)OC)c1ccccc1COc1cccc(C=C(Cl)Cl)c1Cl [Example 43]", 100],
  ["CO/N=C(/C(=O)OC)c1ccccc1COc1c(C)cccc1C=C(Cl)Cl [Example 49]", 100],
  ["CO/N=C(/C(=O)OC)c1ccccc1COc1c(OC)ccc(C=C(Cl)Cl)c1Br [Example 51]", 100],
  ["CO/N=C(/C(=O)OC)c1ccccc1COc1ccc(C=C(Cl)Cl)cc1Cl [Example 39]", 100],
  ["CNC(=O)/C(=N/OC)c1ccccc1COc1ccc(C=C(Cl)Cl)cc1C [Example 42]", 100]
]}

With those in mind, consider the next molecule.
Fill in: pest or weed control at 2 ppm of CNC(=O)/C(=N/OC)c1ccccc1COc1cc(C=C(Cl)Cl)ccc1OC [Example 48] is ___
100

----------
# Tested on: Puccinia recondita
# TEST: Fungicidal activity against wheat leaf rust (WLR) disease, control value
# Assay type: in vivo
# ASSAY_SETUP: 50 ppm, wheat leaf rust; read-out: WLR control value (C.V.)
METRIC: pest or weed control at 50 ppm (%)
All answers are understood in %, so give the number only.

Worked set:
{"columns": ["LINE_NOTATION", "EXPERIMENTAL_TARGET", "MEASUREMENT_UNIT", "pest or weed control at 50 ppm"],
 "data": [
  ["CNC(=O)/C(=N/OC)c1ccccc1COc1ccc(C=C(F)F)cc1", "Puccinia recondita", "%", 100],
  ["CNC(=O)/C(=N/OC)c1ccccc1COc1cccc(C=C(Br)Br)c1", "Puccinia recondita", "%", 95]
]}

Fill in: pest or weed control at 50 ppm of `CNC(=O)/C(=N/OC)c1ccccc1COc1cccc(C=C(Cl)Cl)c1Cl` is ___
100

----------
# Tested on: Erysiphae graminis
# TEST: Fungicidal activity against barley powdery mildew (BPM) disease, control value
# Format: in vivo
# ASSAY_SETUP: Hordeum vulgare, 168 h; 10 ppm, barley powdery mildew; read-out: BPM control value (C.V.)
METRIC: pest or weed control at 10 ppm (%)
All answers are understood in %, so give the number only.

Fill in: pest or weed control at 10 ppm of `CO/N=C(/C(=O)OC)c1ccccc1COc1ccc(C=C(Cl)Br)cc1` is ___
90

Fill in: pest or weed control at 10 ppm of `CNC(=O)/C(=N/OC)c1ccccc1COc1ccc(C=C(Cl)Br)cc1` is ___
98

Fill in: pest or weed control at 10 ppm of `CNC(=O)/C(=N/OC)c1ccccc1COc1c(C)cccc1C=C(Cl)Cl` is ___
100

----------
# Test system: Rhizoctonia solani AG-1
# TEST: Fungicidal activity against rice sheath blight (RSB) disease, control value
# ASSAY_SETUP: 10 ppm, rice sheath blight
RSB control value (C.V.) reference
All answers are understood in %, so give the number only.

{"columns": ["LINE_NOTATION", "RSB control value (C.V.) (%)"],
 "data": [
  ["CO/N=C(/C(=O)OC)c1ccccc1CON=C(C)c1cccc(C=C(Br)Br)c1", 100],
  ["CNC(=O)/C(=N/OC)c1ccccc1COc1c(OC)ccc(C=C(Cl)Cl)c1Br", 100],
  ["CNC(=O)/C(=N/OC)c1ccccc1CON=C(C)c1cccc(C=C(Cl)Br)c1", 90],
  ["CNC(=O)/C(=N/OC)c1ccccc1CON=C(C)c1ccc(C=C(Cl)Br)cc1", 95],
  ["CNC(=O)/C(=N/OC)c1ccccc1CON=C(C)c1ccc(C=C(Cl)Cl)cc1", 98]
]}

With those in mind, consider the next molecule.
Fill in: RSB control value (C.V.) of `CO/N=C(/C(=O)OC)c1ccccc1CON=C(C)c1ccc(C=C(Br)Br)cc1` is ___
98

----------
# System: Rhizoctonia solani AG-1
# TEST: Fungicidal activity against rice sheath blight (RSB) disease, control value
# ASSAY_SETUP: Rhizoctonia solani, AG1, in Oryza sativa, read-out: RSB control value (C.V.)
pest or weed control at 10 ppm reference
All answers are understood in %, so give the number only.

Worked set:
{"columns": ["MOLECULE", "pest or weed control at 10 ppm, %"],
 "data": [
  ["CO/N=C(/C(=O)OC)c1ccccc1COc1ccc(C=C(Br)Br)cc1Cl [Example 63]", 100],
  ["CO/N=C(/C(=O)OC)c1ccccc1COc1ccccc1C [Kresoxim-methyl, reference compound]", 98]
]}

Fill in: pest or weed control at 10 ppm of CNC(=O)/C(=N/OC)c1ccccc1COc1cccc(C=C(Br)Br)c1 [Example 6] is ___
90

Fill in: pest or weed control at 10 ppm of CNC(=O)/C(=N/OC)c1ccccc1COc1ccc(C=C(Br)Br)c(Cl)c1 [Example 82] is ___
90

Fill in: pest or weed control at 10 ppm of CO/N=C(/C(=O)OC)c1ccccc1COc1ccc(C)cc1C=C(Br)Br [Example 69] is ___
100
